Molecular target: E. coli PBP3 (Escherichia coli (strain K12))
Sequence (P0AD68 whole entry): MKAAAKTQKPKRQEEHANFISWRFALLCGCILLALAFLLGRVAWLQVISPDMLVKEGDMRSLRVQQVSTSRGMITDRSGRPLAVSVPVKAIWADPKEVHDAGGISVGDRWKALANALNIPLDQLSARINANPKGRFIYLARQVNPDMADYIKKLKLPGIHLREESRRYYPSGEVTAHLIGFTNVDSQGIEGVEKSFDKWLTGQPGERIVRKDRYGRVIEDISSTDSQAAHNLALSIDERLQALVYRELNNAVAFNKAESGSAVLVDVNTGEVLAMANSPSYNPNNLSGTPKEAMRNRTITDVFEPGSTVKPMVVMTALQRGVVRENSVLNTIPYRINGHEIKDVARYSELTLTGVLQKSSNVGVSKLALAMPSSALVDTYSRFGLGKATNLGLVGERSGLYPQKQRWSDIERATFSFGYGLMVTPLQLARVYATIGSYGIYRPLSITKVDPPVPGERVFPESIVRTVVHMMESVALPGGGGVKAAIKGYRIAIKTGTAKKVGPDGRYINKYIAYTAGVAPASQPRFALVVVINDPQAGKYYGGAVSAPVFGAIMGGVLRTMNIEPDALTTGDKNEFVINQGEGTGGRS
Assay: E. coli PBP3 Bocillin-FL fluorescence polarization competition binding assay
Description: To determine the ability of boronic acid-based test PBP inhibitors to bind Penicillin Binding Proteins (PBPs), Bocillin-FL (fluorescently-labeled penicillin V; ThermoFisher Scientific) was used in a fluorescence polarization (FP) competition binding assay to assess inhibitor binding to PBP2, PBP3 or PBP4 from Escherichia coli. […] Bocillin-FL was added and the FP immediately measured for 60 minutes (90 minutes for PBP2). […]
pEC50: −log10 of the molar value.
Property: pEC50

>  <Compound>
Nc1nc(C(NC(=O)N2CCN(CCF)C(=O)C2=O)C(=O)N[C@H]2Cc3cccc(C(=O)O)c3OB2O)c(Cl)s1 (stereo partly shown)

>  <pEC50>
3.30 to 4.52

$$$$
>  <Compound>
CCN1CCN(C(=O)NC(C(=O)N[C@H]2Cc3cccc(C(=O)O)c3OB2O)c2ccc(OC)cc2)C(=O)C1=O (stereo partly shown)

>  <pEC50>
3.30 to 4.52

$$$$
>  <Compound>
CCCN1CCN(C(=O)NC(C(=O)N[C@H]2Cc3cccc(C(=O)O)c3OB2O)c2cnc(N)s2)C(=O)C1=O (stereo partly shown)

>  <pEC50>
3.30 to 4.52

$$$$

Next item in the queue.
Task: Tell me measured pEC50 for CCN1CCN(C(=O)NC(C(=O)N[C@H]2Cc3ccc(Cl)c(C(=O)O)c3OB2O)c2csc(N)n2)C(=O)C1=O (stereo partly shown) please.
Output: 3.30 to 4.52

Values compiled from patent US12173018B2.
